assay: Cmax in mouse at 100 mg/kg, po; type: ADME, organism-based; parameters: dose 100 mg/kg, route po; conditions: in vivo

sample smiles: CCNC(=O)c1ccc2c([C@H]3CCN(CC4(O)CCCCC4)C[C@@H]3C)c(C)nn2c1
display unit: ng/mL
Cmax: 9140
--
sample smiles: CCNC(=O)c1ccc2c(c1)nc(C(F)F)n2[C@H]1CCN(CC2(O)CCCCC2)C[C@@H]1C
display unit: ng/mL
Cmax: 14000

----------
assay: AUC in mouse at 100 mg/kg, po; type: ADME, organism-based; parameters: dose 100 mg/kg, route po; settings: in vivo

sample smiles: CCNC(=O)c1ccc2c([C@H]3CCN(CC4(O)CCCCC4)C[C@@H]3C)c(C)nn2c1
AUC (ng·h/mL): 412

sample smiles: CCNC(=O)c1ccc2c(c1)nc(C(F)F)n2[C@H]1CCN(CC2(O)CCCCC2)C[C@@H]1C
AUC (ng·h/mL): 675
